TESTED SYSTEM: F508delCFTR (Homo sapiens, UniProt P13569, DEL508-508)
Construct: expressed in transfected cells; host or cells: CFBE41o- (human lung derived epithelial cell line), doxycycline-inducible
Sequence (P13569 with tags, fused parts or gaps DEL508-508): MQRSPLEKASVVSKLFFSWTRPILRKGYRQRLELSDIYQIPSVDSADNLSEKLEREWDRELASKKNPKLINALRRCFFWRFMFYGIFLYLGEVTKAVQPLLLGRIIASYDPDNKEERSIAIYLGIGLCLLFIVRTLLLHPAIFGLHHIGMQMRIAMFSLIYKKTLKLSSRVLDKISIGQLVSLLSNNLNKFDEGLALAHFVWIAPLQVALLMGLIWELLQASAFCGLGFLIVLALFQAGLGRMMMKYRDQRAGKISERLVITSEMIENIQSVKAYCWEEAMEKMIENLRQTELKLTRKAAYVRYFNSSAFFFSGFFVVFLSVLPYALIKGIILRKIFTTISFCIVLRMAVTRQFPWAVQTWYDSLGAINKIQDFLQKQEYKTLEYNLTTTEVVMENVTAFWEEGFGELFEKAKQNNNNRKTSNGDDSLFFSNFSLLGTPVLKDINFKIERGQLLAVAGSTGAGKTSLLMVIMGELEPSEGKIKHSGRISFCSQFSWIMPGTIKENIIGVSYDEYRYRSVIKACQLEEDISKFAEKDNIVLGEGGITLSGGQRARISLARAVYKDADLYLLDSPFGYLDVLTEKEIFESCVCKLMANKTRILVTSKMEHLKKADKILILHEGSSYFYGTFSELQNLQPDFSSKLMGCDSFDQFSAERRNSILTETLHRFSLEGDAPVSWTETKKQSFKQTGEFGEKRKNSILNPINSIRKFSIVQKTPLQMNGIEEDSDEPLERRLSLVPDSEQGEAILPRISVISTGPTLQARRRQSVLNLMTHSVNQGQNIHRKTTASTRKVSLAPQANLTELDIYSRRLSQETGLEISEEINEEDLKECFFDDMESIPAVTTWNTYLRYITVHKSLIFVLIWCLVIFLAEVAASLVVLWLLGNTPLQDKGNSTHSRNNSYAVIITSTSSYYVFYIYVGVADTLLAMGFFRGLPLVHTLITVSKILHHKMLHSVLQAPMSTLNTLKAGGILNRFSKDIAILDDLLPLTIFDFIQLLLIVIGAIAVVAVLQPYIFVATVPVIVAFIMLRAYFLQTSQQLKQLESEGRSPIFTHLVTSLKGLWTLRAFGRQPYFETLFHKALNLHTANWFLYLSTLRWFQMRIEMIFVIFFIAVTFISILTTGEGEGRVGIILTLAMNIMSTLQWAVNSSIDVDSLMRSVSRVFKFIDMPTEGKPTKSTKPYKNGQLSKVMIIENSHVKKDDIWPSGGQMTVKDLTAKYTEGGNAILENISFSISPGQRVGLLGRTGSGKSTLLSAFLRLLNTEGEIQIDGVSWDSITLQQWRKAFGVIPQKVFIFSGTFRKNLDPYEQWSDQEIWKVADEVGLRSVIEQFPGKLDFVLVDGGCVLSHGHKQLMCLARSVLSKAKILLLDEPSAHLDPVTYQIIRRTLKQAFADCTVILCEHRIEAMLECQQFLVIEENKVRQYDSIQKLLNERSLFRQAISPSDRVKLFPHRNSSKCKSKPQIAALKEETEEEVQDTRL
PROTOCOL SUMMARY: Cell Surface Expression-Horse Radish Peroxidase (CSE-HRP) assay
Format: cell-based
CONDITIONS: CFBE41o-F508delCFTR-HRP cells; maximum at any tested concentration, normalized to on-plate positive control (3 μM)
MEASUREMENT TYPE: Maximum % activity (%)
Response body: numeric value in %, unit text excluded.

`COc1ccc2c(c1)O[C@@H](c1cccc(C(=O)O)c1)C[C@H]2NC(=O)C1(c2ccc(Br)cc2)CC1` has a reported Maximum % activity of 39.1

`COc1ccc2c(c1)O[C@@H](c1ccc(C(=O)O)cc1)C[C@H]2NC(=O)[C@@]1(C)CCc2cc(Cl)ccc2O1` has a reported Maximum % activity of 4.7

`COc1ccc2c(c1)O[C@@H](c1ccc(C(=O)O)cc1)C[C@H]2NC(=O)C1(c2ccc(C(F)(F)F)cc2)CC1` has a reported Maximum % activity of 120.0

COC(=O)c1cccc([C@H]2C[C@@H](NC(=O)C3(C)CCc4ccc(OC(F)(F)F)cc43)c3ccc(OC)cc3O2)c1 (some centres unmarked) has a reported Maximum % activity of 2.3

`COc1ccc2c(c1)O[C@@H](c1ccc(C(=O)O)cc1)C[C@H]2NC(=O)C(C)(C)Oc1ccc2c(c1)OCO2` has a reported Maximum % activity of 15.9

O=C(N[C@@H]1C[C@H]([C@H]2CC[C@@H](C(=O)O)CC2)Oc2cc(OC(F)F)ccc21)C1(c2ccc3c(c2)OC(F)(F)O3)CC1 [Example 15A] has a reported Maximum % activity of 94.7

`COc1ccc2c(c1)CC[C@]2(C)C(=O)N[C@@H]1C[C@H](c2cccc(C(=O)O)c2)Oc2ccccc21` has a reported Maximum % activity of 52.6

O=C(N[C@@H]1C[C@H]([C@H]2CC[C@H](C(=O)O)CC2)Oc2cc(OC(F)F)ccc21)C1(c2ccc3c(c2)OC(F)(F)O3)CC1 [Example 15B] has a reported Maximum % activity of 125.5

`COC(=O)c1cccc([C@H]2C[C@@H](NC(=O)[C@]3(C)CCc4cc(OC)ccc43)c3ccccc3O2)c1` has a reported Maximum % activity of 21.2

`C[C@]1(C(=O)N[C@@H]2C[C@H](c3cccc(C(=O)O)c3)Oc3ccccc32)CCc2cc(Cl)ccc2O1` has a reported Maximum % activity of 4.8

`COc1ccc2c(c1)O[C@@H](c1ccc(C(=O)O)cc1)C[C@H]2NC(=O)C1(c2cccc(OC(F)(F)F)c2)CCC1` has a reported Maximum % activity of 51.0

`COc1ccc2c(c1)O[C@@H](c1ccc(C(=O)O)cc1)C[C@H]2NC(=O)C1(c2ccc(OC(F)(F)F)cc2)CC1` has a reported Maximum % activity of 106.0

`COC(=O)c1ccc([C@H]2C[C@@H](NC(=O)[C@]3(C)CCc4cc(Cl)ccc4O3)c3ccccc3O2)cc1` has a reported Maximum % activity of 20.0

`COC(=O)c1ccc([C@H]2C[C@@H](NC(=O)[C@@]3(C)CCc4cc(Cl)ccc4O3)c3ccccc3O2)cc1` has a reported Maximum % activity of 1.8

---

Kindly state Maximum % activity for each of the entries shown.
TESTED SYSTEM: F508delCFTR (Homo sapiens, UniProt P13569, DEL508-508)
Construct: expressed in transfected cells; host or cells: CFBE41o- (human lung derived epithelial cell line), doxycycline-inducible
PROTOCOL SUMMARY: Cell Surface Expression-Horse Radish Peroxidase (CSE-HRP) assay
Type: cell-based
CONDITIONS: CFBE41o-F508delCFTR-HRP cells; maximum at any tested concentration, normalized to on-plate positive control (3 μM)
Response body: numeric value in %, unit text excluded.

Param item: COc1ccc2c(c1)O[C@@H](c1ccc(C(=O)O)cc1)C[C@H]2NC(=O)C(C)(C)Oc1cccc(C(F)(F)F)c1 [Example 78] ; param system: F508delCFTR (Homo sapiens, UniProt P13569, DEL508-508); output Maximum % activity: 32.0

Param item: COc1ccc2c(c1)O[C@@H](c1ccc(C(=O)O)cc1)C[C@H]2NC(=O)C1(C)CCc2cc(C)ccc21 (stereo partly shown) [Example 7] ; param system: F508delCFTR (Homo sapiens, UniProt P13569, DEL508-508); output Maximum % activity: 90.1

Param item: C[C@]1(C(=O)N[C@@H]2C[C@H](c3cccc(C(=O)O)c3)Oc3ccccc32)CCc2ccc(Cl)cc21 [Example 54] ; param system: F508delCFTR (Homo sapiens, UniProt P13569, DEL508-508); output Maximum % activity: 10.4

Param item: COc1ccc2c(c1)OC(c1ccc(OC)c(OC)c1)CC2NC(=O)C1(c2cccc(F)c2)CC1 (stereo not shown) [Example 19] ; param system: F508delCFTR (Homo sapiens, UniProt P13569, DEL508-508); output Maximum % activity: 40.8

Param item: C[C@@]1(C(=O)N[C@@H]2C[C@H](c3cccc(C(=O)O)c3)Oc3ccccc32)CCc2cc(Cl)ccc2O1 [Example 64] ; param system: F508delCFTR (Homo sapiens, UniProt P13569, DEL508-508); output Maximum % activity: 18.0

Param item: COc1ccc2c(c1)O[C@@H]([C@H]1CC[C@H](C(=O)O)CC1)C[C@H]2NC(=O)C1(c2ccc3c(c2)OC(F)(F)O3)CC1 [Example 11] ; param system: F508delCFTR (Homo sapiens, UniProt P13569, DEL508-508); output Maximum % activity: 124.5

Param item: COc1ccc2c(c1)O[C@@H](c1ccc(C(=O)O)cc1)C[C@H]2NC(=O)C(C)(C)c1ccc2c(c1)CCO2 [Example 71] ; param system: F508delCFTR (Homo sapiens, UniProt P13569, DEL508-508); output Maximum % activity: 52.0

---

TESTED SYSTEM: F508delCFTR (Homo sapiens, UniProt P13569, DEL508-508)
Construct: expressed in transfected cells; host or cells: CFBE41o- (human lung derived epithelial cell line), doxycycline-inducible
PROTOCOL SUMMARY: Cell Surface Expression-Horse Radish Peroxidase (CSE-HRP) assay
Format: cell-based
CONDITIONS: CFBE41o-F508delCFTR-HRP cells; maximum at any tested concentration, normalized to on-plate positive control (3 μM)
MEASUREMENT TYPE: Maximum % activity

`COc1ccc2c(c1)O[C@@H](c1ccc(C(=O)O)cc1)C[C@H]2NC(=O)C1(c2ccc(F)cc2)CCCC1` has a reported Maximum % activity of 5.7%

`COc1ccc2c(c1)O[C@@H](c1ccc(C(=O)O)cc1)C[C@H]2NC(=O)C1(c2cccc(C#N)c2)CC1` has a reported Maximum % activity of 46.0%

`COc1ccc2c(c1)O[C@@H](c1ccc(C(=O)O)cc1)C[C@H]2NC(=O)C1(c2ccc(Br)cc2)CCC1` has a reported Maximum % activity of 71.0%

COc1ccc2c(c1)OC(c1ccc(OC)c(OC)c1)CC2NC(=O)C1(c2ccc(F)c(F)c2)CCC1 (stereo not shown) has a reported Maximum % activity of 27.6%

---

TESTED SYSTEM: F508delCFTR (Homo sapiens, UniProt P13569, DEL508-508)
PROTOCOL SUMMARY: Cell Surface Expression-Horse Radish Peroxidase (CSE-HRP) assay
CONDITIONS: CFBE41o-F508delCFTR-HRP cells; F508delCFTR cell surface expression, luminescence; 18-24 hours at 33° C.; highest concentration 20 μM
MEASUREMENT TYPE: EC50 (nM)
Response body: numeric value in nM, unit text excluded.

Param item: `COc1ccc2c(c1)O[C@@H](c1ccc(C(=O)O)cc1)C[C@H]2NC(=O)C1(c2ccccc2C(F)(F)F)CCC1` ; param system: F508delCFTR (Homo sapiens, UniProt P13569, DEL508-508); output EC50: 1880

Param item: `COc1ccc2c(c1)O[C@@H](c1ccc(C(=O)O)cc1)C[C@H]2NC(=O)C1(c2cccc(Cl)c2)CC1` ; param system: F508delCFTR (Homo sapiens, UniProt P13569, DEL508-508); output EC50: 660

Param item: `COc1ccc2c(c1)O[C@@H](c1ccc(C(=O)O)cc1)C[C@H]2NC(=O)C1(c2ccc(F)c(F)c2)CCC1` ; param system: F508delCFTR (Homo sapiens, UniProt P13569, DEL508-508); output EC50: 1880

Param item: COC(=O)c1cccc([C@H]2C[C@@H](NC(=O)C3(C)CCc4cc(C)ccc43)c3ccc(OC)cc3O2)c1 (mixture of isomers) ; param system: F508delCFTR (Homo sapiens, UniProt P13569, DEL508-508); output EC50: 450

---

TESTED SYSTEM: F508delCFTR (Homo sapiens, UniProt P13569, DEL508-508)
Construct: expressed in transfected cells; host or cells: CFBE41o- (human lung derived epithelial cell line), doxycycline-inducible
PROTOCOL SUMMARY: Cell Surface Expression-Horse Radish Peroxidase (CSE-HRP) assay
Type: cell-based
CONDITIONS: CFBE41o-F508delCFTR-HRP cells; maximum at any tested concentration, normalized to on-plate positive control (3 μM)
MEASUREMENT TYPE: Maximum % activity (%)
Response body: numeric value in %, unit text excluded.

Param item: `COc1ccc2c(c1)O[C@@H](c1ccc(C(=O)O)cc1)C[C@H]2NC(=O)C1(c2cccc(F)c2)CCCC1` ; param system: F508delCFTR (Homo sapiens, UniProt P13569, DEL508-508); output Maximum % activity: 8.1

Param item: COc1ccc(C(C)(C)C(=O)NC2CC(c3ccc(OC)c(OC)c3)Oc3cc(OC)ccc32)cc1 (stereo not shown) ; param system: F508delCFTR (Homo sapiens, UniProt P13569, DEL508-508); output Maximum % activity: 54.0

Param item: COc1ccc2c(c1)OC(c1ccc(OC)c(OC)c1)CC2NC(=O)C(C)(C)Oc1ccc(Cl)cc1 (stereo not shown) ; param system: F508delCFTR (Homo sapiens, UniProt P13569, DEL508-508); output Maximum % activity: 5.5

Param item: `COc1ccc2c(c1)O[C@@H](c1ccc(C(=O)O)cc1)C[C@H]2NC(=O)C1(c2ccc(C)cc2)CC1` ; param system: F508delCFTR (Homo sapiens, UniProt P13569, DEL508-508); output Maximum % activity: 95.9

Param item: `COc1ccc(C(C)(C)C(=O)N[C@@H]2C[C@H](c3cccc(C(=O)O)c3)Oc3cc(OC)ccc32)cc1` ; param system: F508delCFTR (Homo sapiens, UniProt P13569, DEL508-508); output Maximum % activity: 39.5

Param item: `COc1ccc2c(c1)O[C@@H](c1ccc(C(=O)O)cc1)C[C@H]2NC(=O)C1(c2ccc(Cl)c(Cl)c2)CC1` ; param system: F508delCFTR (Homo sapiens, UniProt P13569, DEL508-508); output Maximum % activity: 95.0

Param item: `COc1ccc2c(c1)O[C@@H](c1ccc(C(=O)O)cc1)C[C@H]2NC(=O)C(C)(C)Oc1ccc(Cl)c(C)c1` ; param system: F508delCFTR (Homo sapiens, UniProt P13569, DEL508-508); output Maximum % activity: 8.0

Values were extracted from patent US10118916B2.
